# AC50 values compiled below
Tested on: Plasmodium falciparum Dd2 asexual blood stage parasites
Assay: microbe, parasite or virus in culture
Set-up: species or system Plasmodium falciparum Dd2 in human erythrocytes; single determination (one 11-point concentration-response curve)
Conditions: Plasmodium falciparum, DD2, Erythrocyte, 72 h; read-out: AC50
METRIC_NAME: AC50 (µM)

- CCOc1ccc2c(c1)OC(c1ccc(C)cc1)(C(F)(F)F)NC2=O (centres unmarked): 2.66
- c1ccc(Nc2cc3c(cn2)CN(Cc2ccc4[nH]ccc4c2)CCN3)cc1: 1.37
- CN(C)CCNC(=O)c1cc2c(s1)-c1ccc(Cl)cc1SC2: 13.3
- CN(C)CCCn1cnc2c(c1=N)C(c1ccccc1)c1ccc3ccccc3c1O2 (centres unmarked): 3.76
- CC(C)(C)NC(=O)c1ccc(-c2nnc3ccc(NC(=O)C4CC4)cn23)cc1: 9.44
- O=C(Nc1ccc(Cl)cc1)c1cc2c(-c3ccccc3)nn(-c3ccccc3)c2s1: 2.37
- CCCc1cc(=O)oc2cc(C)cc(OCC(=O)Nc3ccccn3)c12: 2.11
- COc1cccc(Cn2c(Oc3ccccc3)nc3c2c(=O)n(C)c(=O)n3C)c1: 4.73

Reference for the values: paper PMC7822874
